Cited source: patent US7786141B2

target: M1 muscarinic receptor (Homo sapiens)
Construct: expressed in transfected cells; host or cells: CHO (M1-CHO)
Sequence (P11229 whole entry): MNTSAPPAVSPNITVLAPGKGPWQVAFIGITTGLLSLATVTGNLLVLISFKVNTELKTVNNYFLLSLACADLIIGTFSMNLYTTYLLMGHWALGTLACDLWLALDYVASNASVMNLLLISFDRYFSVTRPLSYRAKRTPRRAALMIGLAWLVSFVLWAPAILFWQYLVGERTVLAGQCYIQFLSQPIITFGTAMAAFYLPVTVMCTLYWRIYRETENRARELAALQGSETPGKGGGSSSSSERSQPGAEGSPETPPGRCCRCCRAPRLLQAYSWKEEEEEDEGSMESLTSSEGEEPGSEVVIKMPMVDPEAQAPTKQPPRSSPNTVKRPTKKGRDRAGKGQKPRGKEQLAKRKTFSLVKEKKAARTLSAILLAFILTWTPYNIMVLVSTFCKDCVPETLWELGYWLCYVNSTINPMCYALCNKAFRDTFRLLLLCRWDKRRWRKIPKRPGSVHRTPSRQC
experimental-protocol: Functional mobilization of intracellular calcium (FLIPR) in M1-CHO cells
Format: cell-based
recorded-conditions: CHO cells expressing M1, calcium mobilization; Table 5
endpoint-name: EC50

INSERT INTO results (smiles_structure, result_value) VALUES
  ('COc1ccc(F)cc1N1CCC(N2CCC3(CC2)CN(C(=O)N(C)C)c2ccc(F)cc23)CC1', '2 to 10 µM'),
  ('CC(=O)N1CC2(CCN(C3CCN(c4nccs4)CC3)CC2)c2cc(F)ccc21', '< 2 µM'),
  ('CN(C)C(=O)N1CC2(CCN(C3CCN(c4ccc(F)cc4)CC3)CC2)c2cc(F)ccc21', '2 to 10 µM'),
  ('COc1ccccc1N1CCC(N2CCC3(CC2)CN(C(=O)N(C)C)c2ccc(F)cc23)CC1', '2 to 10 µM'),
  ('CN(C)C(=O)N1CC2(CCN(C3CCN(c4cccc(F)c4)CC3)CC2)c2cc(F)ccc21', '2 to 10 µM'),
  ('CN(C)C(=O)N1CC2(CCN(C[C@@H]3CCN(c4cnccn4)C3)CC2)c2cc(F)ccc21', '< 2 µM'),
  ('CN(C)C(=O)N1CC2(CCN(C3CCN(c4ccsc4)CC3)CC2)c2cc(F)ccc21', '2 to 10 µM'),
  ('CN(C)C(=O)N1CC2(CCN(C[C@H]3CCN(c4cnccn4)C3)CC2)c2cc(F)ccc21', '< 2 µM'),
  ('CN(C)C(=O)N1CC2(CCN(C3CCN(c4cccnc4)CC3)CC2)c2cc(F)ccc21', '< 2 µM'),
  ('CN(C)C(=O)N1CC2(CCN(C3CCN(c4ccccn4)CC3)CC2)c2cc(F)ccc21', '2 to 10 µM'),
  ('CN(C)C(=O)N1CC2(CCN(C3CCN(c4cncnc4)CC3)CC2)c2cc(F)ccc21', '2 to 10 µM'),
  ('CN(C)C(=O)N1CC2(CCN(C[C@@H]3CCN(c4nccs4)C3)CC2)c2cc(F)ccc21', '2 to 10 µM');
